assay: Urinary excretion after oral administration
Assay type: in vivo
settings: male, SD, rat, urine; rats fasted overnight, 20 mg/kg oral, suspended in 0.5% methylcellulose; disk plate diffusion, Bacillus subtilis ATCC 6633; read-out: Recovery in 24-hrs urine (%)
test readout: dose excreted (%)
Please respond with the number in % and leave the unit unwritten.

Nc1nc(/C(=N/O)C(=O)N[C@@H]2C(=O)N3C(C(=O)O)=C(SCc4cn[nH]c4)CS[C@H]23)cs1 has a reported dose excreted of 50

---

assay: Stability test (2): 9-day stability in an airtight container at 70° C.
Format: physicochemical
settings: potency by liquid chromatography
Experimental: Four lots of the isopropyl alcohol and water-containing crystal of compound (I) as obtained in Example 8 (2) were used. The 9-day stability of each test sample in an airtight container at 70° C. was determined. The potency of each test sample was determined by liquid chromatography and the percentage residue was calculated.
This section presents molecules with their documented Residue (%) values.
Output should be the measured figure followed by the unit it is expressed in.

molecule="Nc1nc(/C(=N/O)C(=O)NC2C(=O)N3C(C(=O)O)=C(SCc4cn[nH]c4)CSC23)cs1 (stereo not shown) [Example 35414OP]" reading=98.7%

Nc1nc(/C(=N/O)C(=O)NC2C(=O)N3C(C(=O)O)=C(SCc4cn[nH]c4)CSC23)cs1 (stereo not shown) [Example 35434OP] has a reported Residue (%) of 98.0%

Nc1nc(/C(=N/O)C(=O)NC2C(=O)N3C(C(=O)O)=C(SCc4cn[nH]c4)CSC23)cs1 (stereo not shown) [Example 35534OP] has a reported Residue (%) of 99.2%

Nc1nc(/C(=N/O)C(=O)NC2C(=O)N3C(C(=O)O)=C(SCc4cn[nH]c4)CSC23)cs1 (stereo not shown) [Example 37914XP] has a reported Residue (%) of 98.0%
